Task for the reader: assign each of the following compounds its reported Ki.
- TGT: Histamine H4 receptor (Homo sapiens, UniProt Q9H3N8)
- Sequence (Q9H3N8 whole entry): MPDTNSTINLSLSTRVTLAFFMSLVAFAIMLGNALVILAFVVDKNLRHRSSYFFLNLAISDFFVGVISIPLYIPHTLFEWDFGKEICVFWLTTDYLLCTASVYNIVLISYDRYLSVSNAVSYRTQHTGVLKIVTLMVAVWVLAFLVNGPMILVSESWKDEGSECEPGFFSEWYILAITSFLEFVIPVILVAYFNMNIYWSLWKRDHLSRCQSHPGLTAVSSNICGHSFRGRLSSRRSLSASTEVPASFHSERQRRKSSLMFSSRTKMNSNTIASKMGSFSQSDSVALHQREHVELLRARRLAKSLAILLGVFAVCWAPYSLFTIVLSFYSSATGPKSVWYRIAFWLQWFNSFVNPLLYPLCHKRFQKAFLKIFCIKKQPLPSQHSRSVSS

// below: answered compounds
NC(=NCc1ccc(Cl)cc1)SCCCc1cnc[nH]1 [VUF 9153] : 12.8 nM
C[C@@H](N)Cc1c[nH]cn1 : 146 nM
c1nc(CC2CCNCC2)c[nH]1 [4-(1H-imidazol-4-ylmethyl)piperidine] : 9 nM
CN/C(=N/CCSCc1nc[nH]c1C)NC#N : > 10000 nM
CNCCc1c[nH]cn1 [N(alpha)-Methylhistamine] : 23 nM
CN/C([CH-][N+](=O)[O-])=[NH+]\CCSCc1ccc(CN(C)C)o1 : > 10000 nM

Query compound follows.
[Q] Lab note: record Ki of Cc1[nH]cnc1CSCCNC(=N)NCCCc1c[nH]cn1 tested on Histamine H4 receptor (Homo sapiens, UniProt Q9H3N8).
[A] 12.3 nM

---

- TGT: Histamine H3 receptor (Homo sapiens)
- Sequence (Q9Y5N1 whole entry): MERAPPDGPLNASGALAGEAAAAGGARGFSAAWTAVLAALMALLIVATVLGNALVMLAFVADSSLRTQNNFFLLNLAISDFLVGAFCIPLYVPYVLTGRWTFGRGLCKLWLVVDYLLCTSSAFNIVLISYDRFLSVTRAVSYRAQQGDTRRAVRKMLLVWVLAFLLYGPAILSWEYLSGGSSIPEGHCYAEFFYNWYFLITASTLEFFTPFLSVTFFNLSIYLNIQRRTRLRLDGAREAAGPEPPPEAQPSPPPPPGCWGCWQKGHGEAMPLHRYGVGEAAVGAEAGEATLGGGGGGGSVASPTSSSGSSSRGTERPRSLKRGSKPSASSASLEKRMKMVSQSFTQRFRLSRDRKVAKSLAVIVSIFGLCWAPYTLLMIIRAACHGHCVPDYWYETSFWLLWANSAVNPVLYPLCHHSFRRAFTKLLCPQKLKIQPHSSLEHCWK
ASSAY_ENDPOINT: pKi
Answers are plain numbers, as −log10 of the molar value.

Take a look at these entries with their results.
CN(C)CCCSC(=N)N : 6.08
CNCCc1c[nH]cn1 : 9.30

Now turn to the next compound.
[Q] Give pKi for Cc1[nH]cnc1CSCCNC(=N)NCCCc1c[nH]cn1
[A] 7.17

Values were extracted from BindingDB's records for doi:10.1124/mol.59.3.420.
